test system: P. falciparum 3D7 growth, pLDH absorbance; test: blood-stage malaria parasite growth potency – strain 3D7, dose response (AID 2305)
pIC50: −log10 of the molar value.
Below, each entry is listed alongside its reported pIC50.
Experimental Endpoint: pIC50

[[record]]
molecule = "C=C[C@]1(C)C[C@@H](OC(=O)NC(=O)C2CCN(C(=O)CSc3ccccc3)CC2)[C@]2(C)[C@H](C)CC[C@]3(CCC(=O)[C@H]32)[C@@H](C)[C@@H]1O"
experimental_endpoint = "pIC50"
test_result = 6.00

[[record]]
molecule = "O=C(O)c1ccc(NC(=O)C2CC(=O)N(Cc3ccc(Cl)cc3)C(=Nc3ccc(Cl)cc3)S2)cc1 (centres undefined)"
experimental_endpoint = "pIC50"
test_result = 6.28

[[record]]
molecule = "CC(C(=O)N1CCCC1)N1CCN(C(c2ccccc2)c2ccccc2)CC1 (centres undefined)"
experimental_endpoint = "pIC50"
test_result = 5.96

[[record]]
molecule = "CC(=O)Nc1ncc(C(=O)Nc2cccc(-c3ccc(-c4nc5ccc(C(F)(F)F)cc5[nH]4)s3)c2)s1"
experimental_endpoint = "pIC50"
test_result = 6.40

[[record]]
molecule = "CCCCNCc1ccc(-c2nc(CN(Cc3ccc(Cl)c(Cl)c3)C(=O)CN(C)C)cs2)cc1"
experimental_endpoint = "pIC50"
test_result = 6.10

[[record]]
molecule = "CCOC(=O)COc1cccc(CNc2ccc3nc(N)nc(N)c3c2)c1"
experimental_endpoint = "pIC50"
test_result = 6.39

[[record]]
molecule = "CCOC(=O)c1cc2c(CCN3C(=O)c4ccccc4C3=O)cn(C)c2cc1-c1ccncc1"
experimental_endpoint = "pIC50"
test_result = 6.24

[[record]]
molecule = "COc1ccc(CNC(=O)C2Cc3ccccc3CN2Cc2ccc3ccccc3c2)cc1 (centres undefined)"
experimental_endpoint = "pIC50"
test_result = 5.96

[[record]]
molecule = "CCNc1cc(C(=O)N[C@@H](Cc2ccccc2)[C@H](O)CNC23CCC(CC2)C3)cc(N2CCCCS2(=O)=O)c1"
experimental_endpoint = "pIC50"
test_result = 7.52

